Field: Affinity (%). Provide a value for each of the binders that follow.
# test system: T1, TNF-α (UniProt P01375 77-233, limits assumed)
# T1 construct: also called tumor necrosis factor; ligand
# T1 sequence (P01375 77-233 limits assumed): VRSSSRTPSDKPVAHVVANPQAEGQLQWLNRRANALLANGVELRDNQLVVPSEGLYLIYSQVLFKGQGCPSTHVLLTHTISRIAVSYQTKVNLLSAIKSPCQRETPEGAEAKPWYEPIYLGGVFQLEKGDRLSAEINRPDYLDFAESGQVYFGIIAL
# assay name: competition ELISA: sample vs plate-bound TNFRI190 for TNF-α, from IC50, relative to wild-type TNFRI126
Record the value in %, omitting the unit from your answer.

Problem: Annotate the binder TNFRI126-A25 (receptor, Met-TNFRI126 mutant made in E. coli) MDSVCPQGKYIHPQNNSICCTKCHKGTYLYNDCPGPGQDTDCRECESGSFTAIPNFLFACLSCSKCRKEMGQVEISSCTVDRDTVCGCRKNQYRHYWSENLFQCFNCSLCLNGTVHLSCQEKQNTVC with its measured Affinity (%).
Result: 682

Problem: Annotate the binder TNFRI126-A14 (receptor, Met-TNFRI126 mutant made in E. coli) MDSVCPQGKYIHPQNNSICCTKCHKGTYLYNDCPGPGQDTDCRECESGSFTATENFLPACLSCSKCRKEMGQVEISSCTVDRDTVCGCRKNQYRHYWSENLFQCFNCSLCLNGTVHLSCQEKQNTVC with its measured Affinity (%).
Result: 765

Problem: Annotate the binder TNFRI126-A12 (receptor, Met-TNFRI126 mutant made in E. coli) MDSVCPQGKYIHPQNNSICCTKCHKGTYLYNDCPGPGQDTDCRECESGSFTANENFLPACLSCSKCRKEMGQVEISSCTVDRDTVCGCRKNQYRHYWSENLFQCFNCSLCLNGTVHLSCQEKQNTVC with its measured Affinity (%).
Result: 659

Problem: Annotate the binder TNFRI126-A4 (receptor, Met-TNFRI126 mutant made in E. coli) MDSVCPQGKYIHPQNNSICCTKCHKGTYLYNDCPGPGQDTDCRECESGSFTAAENFLPACLSCSKCRKEMGQVEISSCTVDRDTVCGCRKNQYRHYWSENLFQCFNCSLCLNGTVHLSCQEKQNTVC with its measured Affinity (%).
Result: 524
